experiment: Approximate solubility of starting material at RT in 20 solvents; assay type: physicochemical; conditions: organic solvent or mixture, IPA
METRIC_NAME: solubility

Prompt: # solubility lookup, item CCCCC1(CCCC)CS(=O)(=O)c2ccc(N(C)C)cc2[C@@H](c2ccc(OC)cc2)[C@H]1O [Formula I]
Completion: 7.3 to 22 mg/mL

Prompt: CCCCC1(CCCC)CS(=O)(=O)c2ccc(N(C)C)cc2[C@@H](c2ccc(O)cc2)[C@H]1O [Formula II] , same question.
Completion: 2.6 to 8.7 mg/mL

----------
experiment: Approximate solubility of starting material at RT in 20 solvents; assay type: physicochemical; conditions: organic solvent or mixture, NMP
For each record, write down the corresponding solubility.

Prompt: # solubility lookup, item CCCCC1(CCCC)CS(=O)(=O)c2ccc(N(C)C)cc2[C@@H](c2ccc(OC)cc2)[C@H]1O
Completion: > 46 mg/mL

Prompt: CCCCC1(CCCC)CS(=O)(=O)c2ccc(N(C)C)cc2[C@@H](c2ccc(O)cc2)[C@H]1O , same question.
Completion: > 44 mg/mL
